PROCEDURE_TEXT: in vivo
Type: in vivo, rat
CONDITION_SET: rat, in vivo, iv; rats, 22.5 mg kg^−1 i.v. bolus (NOAEL); read-out: extrapolated C0
MEASUREMENT_LABEL: C0 (ng/mL)

- COC(=O)N1CCN(C(=N)c2cccc(NC(=O)Nc3ccc(S(=O)(=O)NCc4ccc(S(N)(=O)=O)cc4)cc3)c2)CC1: 49200

====

PROCEDURE_TEXT: PK study
Assay type: in vivo, rat
CONDITION_SET: plasma, iv; rat i.v. 2 mg kg^−1
MEASUREMENT_LABEL: AUC(0-inf) (ng·h/mL)

* COC(=O)N1CCN(C(=N)c2cccc(NC(=O)Nc3ccc(S(=O)(=O)NCc4ccc(S(N)(=O)=O)cc4)cc3)c2)CC1 [SC83288] | 1420

====

PROCEDURE_TEXT: PK study
Type: in vivo
CONDITION_SET: beagle, dog, plasma, iv, […], dog i.v. 1.7 mg kg^−1; read-out: t1/2 initial
MEASUREMENT_LABEL: half-life

* COC(=O)N1CCN(C(=N)c2cccc(NC(=O)Nc3ccc(S(=O)(=O)NCc4ccc(S(N)(=O)=O)cc4)cc3)c2)CC1 [SC83288] | 12 min

====

Recorded pIC50 by entry
Test system: P. falciparum strain D10
PROCEDURE_TEXT: Growth inhibition assay
Format: cell-based
CONDITION_SET: Plasmodium falciparum
pIC50: −log10 of the molar value.
MEASUREMENT_LABEL: pIC50

* CCN(CC)Cc1cc(Nc2ccnc3cc(Cl)ccc23)ccc1O | 8.15
* C=C[C@H]1C[N@@]2CC[C@H]1C[C@H]2[C@H](O)c1ccnc2ccc(OC)cc12 | 7.24
* OC(c1cc(C(F)(F)F)nc2c(C(F)(F)F)cccc12)C1CCCCN1 (stereo not shown) | 11.00
* CCCCN1CCN(C(=N)c2cccc(NC(=O)Nc3ccc(S(=O)(=O)NCc4ccc(S(N)(=O)=O)cc4)cc3)c2)CC1 | 8.05

====

System: synchronized Dd2 rings, trophozoites, schizonts
PROCEDURE_TEXT: Stage-specific activity, 6 h exposure, [3H] hypoxanthine
Type: cell-based
CONDITION_SET: Plasmodium falciparum, DD2, 6 h, trophozoites
Recorded IC50 by entry
MEASUREMENT_LABEL: IC50 (nM)

• CCCCN1CCN(C(=N)c2cccc(NC(=O)Nc3ccc(S(=O)(=O)NCc4ccc(S(N)(=O)=O)cc4)cc3)c2)CC1 = 37
• COC(=O)N1CCN(C(=N)c2cccc(NC(=O)Nc3ccc(S(=O)(=O)NCc4ccc(S(N)(=O)=O)cc4)cc3)c2)CC1 = 40

====

STUDY_TARGET: UniProtKB P41595
Sequence (P41595 whole entry): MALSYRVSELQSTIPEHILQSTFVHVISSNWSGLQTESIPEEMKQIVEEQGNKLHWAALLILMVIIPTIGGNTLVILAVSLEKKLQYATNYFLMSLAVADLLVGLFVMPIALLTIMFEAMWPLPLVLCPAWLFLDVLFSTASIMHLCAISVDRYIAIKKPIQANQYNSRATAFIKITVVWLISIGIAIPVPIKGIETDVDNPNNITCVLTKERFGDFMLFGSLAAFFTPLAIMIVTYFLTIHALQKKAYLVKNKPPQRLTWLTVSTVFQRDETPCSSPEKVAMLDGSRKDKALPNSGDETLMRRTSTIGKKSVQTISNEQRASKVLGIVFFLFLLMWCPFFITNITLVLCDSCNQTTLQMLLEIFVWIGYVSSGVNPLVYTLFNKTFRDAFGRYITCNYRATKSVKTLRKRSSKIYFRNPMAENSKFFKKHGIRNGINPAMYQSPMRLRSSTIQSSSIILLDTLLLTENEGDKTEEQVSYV
pIC50: −log10 of the molar value.
MEASUREMENT_LABEL: pIC50

* COc1cc(CC(C)N)c(OC)cc1I (racemic) [(±)DOI, reference compound] | 8.29

====

PROCEDURE_TEXT: Solubility in water
CONDITION_SET: Supplementary Table 2
MEASUREMENT_LABEL: Solubility in H2O (µg/mL)

• CCCCCN1CCN(C(=N)c2cccc(NC(=O)Nc3ccc(S(=O)(=O)NCc4ccc(S(N)(=O)=O)cc4)cc3)c2)CC1 [SC82833] = 100
• N=C(N)c1cccc(NC(=O)Nc2ccc(S(=O)(=O)c3ccc(Br)cc3)cc2)c1 [SC48443] = 100
• CC(=O)N1CCN(C(=N)c2cccc(NC(=O)Nc3ccc(S(=O)(=O)NCc4ccc(S(N)(=O)=O)cc4)cc3)c2)CC1 [SC83287] = 10
• N=C(c1cccc(NC(=O)Nc2ccc(S(=O)(=O)NCc3ccc(S(N)(=O)=O)cc3)cc2)c1)N1CCN(Cc2ccncc2)CC1 [SC82687] = 32
• CCN(CC)CCN(C)C(=N)c1cccc(NC(=O)Nc2ccc(S(=O)(=O)NCc3ccc(S(N)(=O)=O)cc3)cc2)c1 [SC82869] = 320
• CC(C)N1CCN(C(=N)c2cccc(NC(=O)Nc3ccc(S(=O)(=O)NCc4ccc(S(N)(=O)=O)cc4)cc3)c2)CC1 [SC82486] = 100
